Tested on: OVCAR-5
Method Summary: NCI tumour cell line growth inhibition, 48 h
The source made the active and inactive calls. Rule as the data show it: active = GI50 up to about 1.1 µM and inactive = higher.
Just give me one of these, please: Yes (active), No (inactive)

QUERY: Any idea what this test logged for O=C1c2ccccc2CN1c1ccc(O)cc1 ?
RESULT: No

QUERY: Dear colleague, could you share the recorded outcome for C=CCNC(NCC=C)=C(C(Cl)=C(Cl)Cl)[N+](=O)[O-] when you have a moment?
RESULT: No

QUERY: What is the recorded call for this compound in the test? CC1(C(=O)O)CCCC1C(=O)O (stereo not drawn)
RESULT: No

QUERY: Give the logged outcome of this assay for the following compound: O=C(CCc1ccc(O)cc1)NCCc1cccc(OCc2ccccc2)c1
RESULT: No

QUERY: Dear all, I need the recorded test outcome for CC(NC(=O)OCc1ccccc1)NC(=O)OC(C)(C)C (stereo not drawn) , thank you.
RESULT: No

QUERY: For CCOC(=O)C(CS)NC(=O)CCCCCCCC(=O)O (stereo not drawn) , which call appears in the assay record?
RESULT: No

QUERY: For this compound, state the assay outcome: O=C1C(c2c(O)[nH]c3ccc(Br)cc23)=Nc2ccccc21
RESULT: No

QUERY: // return assay outcome for CC(=O)Oc1cc2c(n(C)c1=O)-c1ccccc1C2
RESULT: No

QUERY: Outcome? COc1cc2c(cc1OCCCN1CCOCC1)N=C[C@@H]1CCCN1C2=O
RESULT: No

QUERY: In this assay, the call recorded for CC(C)(C)OC(=O)N/C(C=O)=C\C1CCCCC1 was what?
RESULT: No

QUERY: # outcome recorded in this test, key = CCCCn1cnnc1NS(=O)(=O)c1cc(C)c(Cl)cc1SCC(=O)O
RESULT: No

QUERY: Given CN(C)CCCNc1ncnc2c1ncn2C1OC(CO)C(O)C1O (stereo not drawn) , state the outcome it received in this test.
RESULT: No

QUERY: How did this test come out for CO/C(=N\N=C\c1cccc(C(F)(F)F)c1)c1ccncc1 ?
RESULT: No

QUERY: Dear colleague, could you share the recorded outcome for C=CC(=O)NCCC(=O)OCn1cc(F)c(=O)[nH]c1=O when you have a moment?
RESULT: No

QUERY: Recorded test call requested for COC(=O)C1Cc2c([nH]c3ccccc23)C(c2cccc(O)c2)N1 (stereo not drawn)
RESULT: No

QUERY: Please let me know the test result on file for C/C(=N\NC(=S)Nc1ccc([N+](=O)[O-])cc1)c1nc2cccnc2[nH]1 .
RESULT: Yes

QUERY: Call for entry O/N=C1/C2CC3CC1(c1ccccc1)CC(/C3=N/O)/C2=N\O (stereo not drawn) :
RESULT: No

QUERY: # lookup: test call for COC(=O)[C@H](Cc1ccccc1)NC(=O)N(CCN(CCC#N)C(=O)N[C@H](C(=O)OC)C(C)C)c1ccccc1
RESULT: No

QUERY: Just curious, what result did CCCOP1(=O)C=C(C)C(Cl)=C(C)C1 (stereo not drawn) get here?
RESULT: No

QUERY: Hi, sorry to bother you, what did the test record for COC(=O)/C=C/c1ccc(OP(=O)(O)O)c(OC)c1 ?
RESULT: No

QUERY: Just curious, what result did O=C(CC(=O)N1N=C(N(c2ccccc2)c2ccccc2)CC1c1ccccc1)Nc1ccccc1 (stereo not drawn) get here?
RESULT: No

QUERY: I'd appreciate the recorded outcome for CC(/C=C/c1ccccc1)=N\NC(=S)N/N=C(C)/C=C/c1ccccc1 from this test.
RESULT: No

QUERY: Record lookup: outcome of this test for O=[N+]([O-])c1cc(Cl)c(Cl)cc1[N+](=O)[O-] ?
RESULT: No

====

Tested on: Malme-3M
Method Summary: NCI tumour cell line growth inhibition, 48 h
Active and inactive are the calls of the source. No stated cut-off is given here; in the data, active = GI50 up to about 1.1 µM and inactive = higher.
Experimental Endpoint: GI50

QUERY: What value of GI50 has been recorded for this entry: O=C(O)CCC(NC(=O)c1ccc(CNc2nc3cc(C(F)(F)F)ccc3nc2C(=O)O)cc1)C(=O)O (stereo not given)
RESULT: > 100 µM (inactive)

QUERY: Consider the compound Cc1ccccc1/N=N/c1c(O)c(S(=O)(=O)O)cc2cc(S(=O)(=O)O)ccc12 and give its measured GI50.
RESULT: > 100 µM (inactive)

QUERY: State the recorded GI50 for this entry: COc1cc2c(cc1C)NC(=O)/C2=C/c1c(Cl)[nH]c2cc(C)c(OC)cc12
RESULT: 11.5 µM (inactive)

QUERY: Give the measured GI50 of CCCCCc1cc2cc3c(c(O)c2c(=O)[nH]1)C1(CCC3)C(=O)c2c(O)ccc(O)c2C1=O .
RESULT: > 100 µM (inactive)

QUERY: Look at this compound and give its reported GI50. CC(=O)Oc1cc2c(n(C)c1=O)-c1ccccc1C2
RESULT: 31.8 µM (inactive)

====

Can you tell me GI50 for the items I'm about to list?
Test system: NCI-H460
Method Summary: NCI tumour cell line growth inhibition, 48 h
Active and inactive are the calls of the source. Cut-off read from the data, not from the text of the source: active = GI50 up to about 1.1 µM and inactive = higher.

QUERY: Give the measured GI50 of COC1=NCc2ccccc2-c2ccccc21 .
RESULT: > 100 µM (inactive)

QUERY: So what's the measured GI50 for this one? CNc1ccc([S+]([O-])Nc2ccc(OC)cc2)cc1 (stereo unspecified)
RESULT: 32 µM (inactive)

QUERY: Find the recorded GI50 belonging to Cc1c(NC(=O)c2cc([N+](=O)[O-])cc([N+](=O)[O-])c2)c(=O)n(-c2ccccc2)n1C and report it.
RESULT: 97.7 µM (inactive)

QUERY: Would you kindly share the measured GI50 for O=C(N/N=C(COc1ccc(Cl)cc1)\N=C\c1ccncc1)c1ccncc1 ?
RESULT: > 100 µM (inactive)

QUERY: Given the compound CCC(C)CN1C(=O)NC(Cc2ccccc2)C1=O (stereo unspecified) , what is its reported GI50?
RESULT: > 100 µM (inactive)

QUERY: Form field: reported GI50 of CSC1=NN(C(C)=O)C(C(OC(C)=O)C(OC(C)=O)C(OC(C)=O)C(COC(C)=O)OC(C)=O)S1 (stereo unspecified)
RESULT: > 100 µM (inactive)

QUERY: Which measured GI50 value corresponds to C/C(CC(O)(C(F)(F)F)C(F)(F)F)=N\O ?
RESULT: > 10 µM (inactive)

QUERY: Please look up its GI50: O=C(O)c1ccc(C=C2Sc3ccccc3S2)cc1
RESULT: 50 µM (inactive)

QUERY: Please report the recorded GI50 for Cc1ccccc1/N=N/c1c(O)c(S(=O)(=O)O)cc2cc(S(=O)(=O)O)ccc12 .
RESULT: > 100 µM (inactive)

QUERY: Recorded GI50 for O=C(n1c2ccccc2c2nnc(S)nc21)C(F)(F)F , please?
RESULT: > 100 µM (inactive)

QUERY: Endpoint output: GI50 of Cc1c(/C=N/N(C)C)oc2c1cc(O)c1ncccc12 . Value?
RESULT: 4.5 µM (inactive)

====

Field: GI50. Provide a value for each of the molecules that follow.
Test system: OVCAR-4
Method Summary: NCI tumour cell line growth inhibition, 48 h
Active and inactive are the calls of the source. Rule as the data show it: active = GI50 up to about 1.1 µM and inactive = higher.

QUERY: Which GI50 is reported for this molecule? CCCCC(/C=C\COC1CCCCO1)=C/C(=O)OCC (stereo unspecified)
RESULT: 61.2 µM (inactive)

QUERY: Returns the measured GI50 for the input molecule. Input: COC(=O)C1=C(OC(=O)/C(=C/c2ccccc2)c2ccc(OC)cc2)C(C(=O)OC)[C@@]2(O)[C@@H](C(=O)OC)[C@H](C)C[C@@H]1[C@@H]2C(=O)OC (stereo partly specified)
RESULT: > 100 µM (inactive)

QUERY: What does the record list as GI50 for O=C(/C=C/c1ccccc1O)CC(=O)/C=C/c1ccccc1O ?
RESULT: 15.1 µM (inactive)

QUERY: Reported GI50 for Cc1n[nH]c(=O)n1-c1cccnc1 : what is it?
RESULT: > 100 µM (inactive)

QUERY: Please look up its GI50: COc1ccc(Cc2c3cc(OC)c(OC)cc3cc[n+]2C)cc1
RESULT: 19.8 µM (inactive)

QUERY: # GI50 lookup, item CC(C)=CCC1=C(OCC(=O)O)C(=O)c2ccccc2C1=O
RESULT: 31.9 µM (inactive)

QUERY: So what does the record say about GI50 for CCC(NC(C)c1ccccc1)C(O)c1ccc(OCc2ccccc2)c(OCc2ccccc2)c1 (stereo unspecified) ?
RESULT: 16.4 µM (inactive)

QUERY: Requested read-out: GI50. Entry: O=C(O)[C@@H](NS(=O)(=O)c1ccc(F)cc1)c1ccccc1
RESULT: > 100 µM (inactive)

QUERY: I would be grateful if you could share the reported GI50 for CN(C)NC(=O)NC12CC3CC(CC(C3)C1)C2 .
RESULT: > 100 µM (inactive)

QUERY: Quick check: GI50 of COc1cc(C(=O)Nc2cc(C(N)=O)cc(OC)c2OC)cc(NC(=O)/C=C/c2ccccc2)c1OC ?
RESULT: > 100 µM (inactive)

QUERY: Which GI50 value belongs to CCOC(=O)C(COS(C)(=O)=O)(COS(C)(=O)=O)C(=O)OCC ?
RESULT: > 100 µM (inactive)
